- Target Of Assay: glucocerebrosidase (Gcase) (Homo sapiens)
- Sequence (P04062 40-536): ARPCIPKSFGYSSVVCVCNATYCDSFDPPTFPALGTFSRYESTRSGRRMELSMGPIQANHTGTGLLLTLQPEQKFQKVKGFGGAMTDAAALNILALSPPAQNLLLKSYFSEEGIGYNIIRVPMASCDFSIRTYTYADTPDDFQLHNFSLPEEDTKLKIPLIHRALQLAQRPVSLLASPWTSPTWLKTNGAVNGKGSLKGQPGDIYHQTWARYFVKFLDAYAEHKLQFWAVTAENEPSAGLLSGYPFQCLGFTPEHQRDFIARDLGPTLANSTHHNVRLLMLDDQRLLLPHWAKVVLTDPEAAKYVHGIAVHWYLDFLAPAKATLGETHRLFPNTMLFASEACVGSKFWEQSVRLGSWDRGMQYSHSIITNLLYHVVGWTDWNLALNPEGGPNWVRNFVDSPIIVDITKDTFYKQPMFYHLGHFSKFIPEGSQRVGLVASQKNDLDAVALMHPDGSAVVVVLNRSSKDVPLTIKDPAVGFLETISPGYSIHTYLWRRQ
- Assay Remarks: Glucocerebrosidase (Gcase) activation assay, 4-methylumbelliferyl-beta-D-glucopyranoside substrate, with saposin C
- Assay type: biochemical
- Run Parameters: test compound at 1.0 μM; read-out: Percent Gcase Activation, 1 μM Test Compound
Measurement Label: activation at 1 µM

Completed entries (count: 2):
>>> result("Cc1cc(-c2ccc3c(c2)OCO3)nc2c(C(=O)NC(C3CC3)C(F)(F)F)ncn12 (centres unmarked)")
"> 60%"
>>> result("Cc1cc(-c2ccc3ocnc3c2)nc2c(C(=O)NC(C3CC3)C(F)(F)F)ncn12 (centres unmarked)")
"> 60%"

activation at 1 µM reported for this compound Cc1cc(C(=O)Nc2ccccc2)nc2c(C(=O)NC(C3CC3)C(F)(F)F)ncn12 (centres unmarked) : < 30%

activation at 1 µM reported for this compound Cc1cc(-c2cccc3c2OCO3)nc2c(C(=O)N[C@@H](C)C3CC3)ncn12 : > 60%

activation at 1 µM reported for this compound Cc1cc(-c2nccs2)nc2c(C(=O)NC(C)(C)C)ncn12 : < 30%

activation at 1 µM reported for this compound Cc1cc(-c2ccccc2CC#N)nc2c(C(=O)NC(C3CC3)C(F)(F)F)ncn12 (centres unmarked) : 30 to 60%
